src = patent US8772480B2

- System: ProfilerPro Kinase Selectivity Assay Kit kinases
- Type: biochemical
- STATED CONDITIONS: PKC beta2; 1 μM compound concentration
# if measured POC (Percent of control) PKC beta2 < 100 POC: condition met  # else: condition not met

• Cc1nc(N)nc(-c2cccnc2Nc2cccc3[nH]ccc23)n1 = condition met
• Cc1nc(N)cc(-c2cccnc2Nc2cccc3[nH]ncc23)n1 = condition not met
• c1cnc(Nc2cccc3[nH]ccc23)c(-c2ncnc3[nH]cnc23)c1 = condition met

Q: Confirm or reject: POC (Percent of control) PKC beta2 of COc1ccc(Nc2ncc(CN3CCN(C(C)=O)CC3)cc2-c2nc(C)nc3[nH]cnc23)cn1 lies strictly below 100 POC
Result: condition met

Q: Does COc1ccc(Nc2ncccc2-c2nc(C)nc3[nH]cnc23)cn1 have POC (Percent of control) PKC beta2 strictly under 100 POC?
Result: condition not met

Q: POC (Percent of control) PKC beta2 under 100 POC? Item: Cc1nc(N)nc(-c2cccnc2Nc2cccc(O)c2)n1
Result: condition met

* * *

- Test system: phosphorylation of Akt at Serine 473 in U87 MG cells
- MEASUREMENT PROTOCOL: cells
- STATED CONDITIONS: Homo sapiens, U-87 MG, 2 h, read-out: U87Cell IC50, pAkt (Ser 473), U87 MG cells, two hours with compound
Exercise: state measured log10 IC50 for each of the compounds provided.
A value of 2 here means IC50 of 100 in nM, since values are log10.

Worked examples follow.
• COc1ccc(Nc2ncccc2-c2nc(C)nc(N)n2)cc1F = 2.96
• COc1ncc(Nc2ncc(C3(N)CC3)cc2-c2nc(C)nc(N)n2)cc1F = 1.23
• Cc1nc(N)nc(-c2cccnc2Nc2cnc(C)c(NS(C)(=O)=O)c2)n1 = 2.56
• Cc1nc(N)nc(-c2cc(CN3CCN(S(C)(=O)=O)CC3)cnc2Nc2cnc3c(c2)ncn3C)n1 = 2.75

I would be grateful if you could provide log10 IC50 for each of the following entries.
1. COc1ccc(CNc2cnc(Nc3ccc(OC)nc3)c(-c3nc(C)nc4[nH]cnc34)c2)cc1
2. COc1ccc(Nc2ncccc2-c2nc(C)nc(N)n2)cc1OC
3. COc1ncc(Nc2ncc(C(C)(C)N3CCOCC3)cc2-c2nc(C)nc(N)n2)cc1F
4. Cc1nc(N)nc(-c2cc(CN3CCN(S(C)(=O)=O)CC3)cnc2Nc2cccc(O)c2)n1
5. COc1ccc(Nc2ncc(CNc3cccnc3)cc2-c2nc(C)nc3[nH]cnc23)cn1

Result:
1. 2.43
2. 2.78
3. 1.20
4. 1.48
5. 1.86

For every item in the list below, what is its measured log10 IC50?
1. Cc1nc(N)nc(-c2cc(CN3CCN(S(C)(=O)=O)CC3)cnc2Nc2ccc3ncoc3c2)n1
2. Cc1nc(N)nc(-c2cc(CN3CCN(S(C)(=O)=O)CC3)cnc2Nc2ccc3[nH]cnc3c2)n1
3. COc1ccc(Nc2ncc([C@H](O)C(F)(F)F)cc2-c2nc(C)nc(N)n2)cn1
4. COc1ccc(Nc2ncc(N3CC[C@@H](O)C3)cc2-c2nc(C)nc3[nH]cnc23)cn1
5. Cc1nc(-c2cccnc2Nc2cnc(Cl)c(NS(C)(=O)=O)c2)c2nc[nH]c2n1
6. COc1ccc(Nc2ncc(CO)cc2-c2nc(C)nc3[nH]cnc23)cn1
7. Cc1nc(N)nc(-c2cc(CN3CCN(S(C)(=O)=O)CC3)cnc2Nc2cnc(O)c(F)c2)n1

Result:
[1.66, 3.01, 1.66, 2.59, 1.66, 2.29, 1.86]
